Taken from patent US8962596B2.

Each item that follows carries a reported pIC50.
Biological target: JAK3 (Homo sapiens, UniProt P52333)
Sequence (P52333 1-1124): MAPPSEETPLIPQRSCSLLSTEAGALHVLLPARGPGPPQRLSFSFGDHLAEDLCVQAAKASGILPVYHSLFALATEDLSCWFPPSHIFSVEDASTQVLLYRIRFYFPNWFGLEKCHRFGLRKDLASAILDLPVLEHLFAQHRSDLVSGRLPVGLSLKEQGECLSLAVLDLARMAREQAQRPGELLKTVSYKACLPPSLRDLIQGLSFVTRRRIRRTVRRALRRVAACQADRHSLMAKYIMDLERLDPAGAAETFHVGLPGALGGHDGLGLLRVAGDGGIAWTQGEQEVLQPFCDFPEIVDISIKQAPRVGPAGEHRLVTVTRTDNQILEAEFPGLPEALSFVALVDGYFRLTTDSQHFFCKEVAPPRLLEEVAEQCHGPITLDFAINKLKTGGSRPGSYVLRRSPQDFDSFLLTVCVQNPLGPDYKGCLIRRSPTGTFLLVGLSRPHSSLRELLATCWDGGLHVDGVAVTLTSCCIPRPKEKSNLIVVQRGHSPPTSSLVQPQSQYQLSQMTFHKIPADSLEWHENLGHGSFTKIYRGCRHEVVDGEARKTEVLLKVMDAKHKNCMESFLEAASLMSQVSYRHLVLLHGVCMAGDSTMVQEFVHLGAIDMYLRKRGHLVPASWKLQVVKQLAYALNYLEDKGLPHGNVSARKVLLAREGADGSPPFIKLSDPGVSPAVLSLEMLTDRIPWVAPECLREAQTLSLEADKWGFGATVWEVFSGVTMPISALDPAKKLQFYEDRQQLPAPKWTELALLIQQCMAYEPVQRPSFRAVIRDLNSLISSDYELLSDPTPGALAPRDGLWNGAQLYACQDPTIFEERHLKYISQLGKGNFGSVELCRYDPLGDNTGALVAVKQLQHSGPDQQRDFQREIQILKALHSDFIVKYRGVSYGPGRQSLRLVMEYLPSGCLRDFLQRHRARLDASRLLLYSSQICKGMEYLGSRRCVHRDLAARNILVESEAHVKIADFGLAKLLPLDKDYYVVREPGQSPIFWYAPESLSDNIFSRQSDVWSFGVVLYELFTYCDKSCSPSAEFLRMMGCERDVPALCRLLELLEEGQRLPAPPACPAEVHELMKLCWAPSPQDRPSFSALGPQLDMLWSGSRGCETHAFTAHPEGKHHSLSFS
pIC50: −log10 of the molar value.
attribute_measured: pIC50

> print(dat)
                                   compound  attribute.measured      measured
1  N#CCC1(n2cc(-c3nc(-c4cnn(C5COC5)c4)cc4nccn34)cn2)CN(CC(F)(F)C(F)(F)F)C1               pIC50        < 6.00
2  Cn1cc(-c2cc3ncc(Cl)n3c(-c3cnn(C(CC#N)C4CC4)c3)n2)cn1 (centres unmarked)               pIC50  6.00 to 7.00
3  CCn1cc(-c2cc3nccn3c(-c3cnn(C(CC#N)C4CC4)c3)n2)cn1 (centres unmarked)               pIC50  6.00 to 7.00
4  CN1CCN(CCn2cc(-c3cc4nccn4c(-c4cnn(C(CC#N)C5CC5)c4)n3)cn2)CC1 (centres unmarked)               pIC50  6.00 to 7.00
5  Cn1cc(-c2cc3nccn3c(-c3cnn(C4(CC#N)CC5(CCC5)C4)c3)n2)cn1               pIC50  6.00 to 7.00
6  Cn1cc(-c2cc3nccn3c(-c3cnn(C(CC#N)C(C)(C)C)c3)n2)cn1 (centres unmarked)               pIC50        < 6.00
7  Cn1cc(-c2cc3nccn3c(-c3cnn(C4(CC#N)CN(CC(F)F)C4)c3)n2)cn1               pIC50        < 6.00
8  Cn1cc(-c2cc3nccn3c(-c3cnn(C(CC#N)C4CC4)c3)n2)cn1 (centres unmarked) [Example 2]               pIC50        < 6.00
